Molecular target: ABCG2 (Homo sapiens, UniProt Q9UNQ0)
Sequence (Q9UNQ0 whole entry): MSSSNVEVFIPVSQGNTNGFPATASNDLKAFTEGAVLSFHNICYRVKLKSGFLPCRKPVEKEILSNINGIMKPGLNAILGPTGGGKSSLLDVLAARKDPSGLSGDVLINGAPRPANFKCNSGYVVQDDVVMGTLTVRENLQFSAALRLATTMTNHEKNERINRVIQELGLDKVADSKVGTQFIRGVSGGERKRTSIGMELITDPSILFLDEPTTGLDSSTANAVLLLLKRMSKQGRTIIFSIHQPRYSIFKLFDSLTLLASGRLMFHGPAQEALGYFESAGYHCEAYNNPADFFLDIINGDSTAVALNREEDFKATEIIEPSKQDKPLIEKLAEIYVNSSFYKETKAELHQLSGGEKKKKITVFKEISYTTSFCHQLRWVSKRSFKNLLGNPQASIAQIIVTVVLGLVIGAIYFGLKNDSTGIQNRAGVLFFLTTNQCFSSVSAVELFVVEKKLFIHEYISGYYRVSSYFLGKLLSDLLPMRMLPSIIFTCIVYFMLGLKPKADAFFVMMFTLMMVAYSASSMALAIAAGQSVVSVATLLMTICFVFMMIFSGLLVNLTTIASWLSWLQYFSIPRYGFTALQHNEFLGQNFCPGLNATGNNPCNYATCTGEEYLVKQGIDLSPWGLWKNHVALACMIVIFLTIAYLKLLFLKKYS
Experiment: vanadate-sensitive ATPase stimulation in membrane vesicles
Format: biochemical
pEC50: −log10 of the molar value.
recorded.endpoint: pEC50

Query block: // Input: CCCc1nn(C)c2c(=O)[nH]c(-c3cc(S(=O)(=O)N4CCN(C)CC4)ccc3OCC)nc12 [Sildenafil] . Output its pEC50 only.
Result block: 6.30 to 6.60
